- target.or.test.system: M2(S31) (Influenza A virus, UniProt P0DOF5)
- Construct: expressed in transfected cells; host or cells: CHO cells (membrane preparation adsorbed to SSM sensors)
- Sequence (P0DOF5 whole entry): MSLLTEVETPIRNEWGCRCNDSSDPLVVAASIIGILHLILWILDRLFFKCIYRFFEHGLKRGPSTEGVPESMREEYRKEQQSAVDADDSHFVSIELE
- test: Cell-free electrophysiology of M2 proton channels on solid supported membranes (IonGate SURFE2R screen)
- Assay type: biochemical
- applied.conditions: 25 μM inhibitor, activation by pH jump 7.0 to 6.0, % inhibition=100×(1−I/Io), read-out: IonGate_M2(S31)_Screen % Inhibition at 25 μM
measured.metric: inhibition at 25 µM

Field: example entries. Status: answers known.
>>> observed("O/N=C1\\C(=N\\O)C2CC3CC(CC1C3)C2 [Example 29]")
"11 to 50%"
>>> observed("NCC1(O)C2CC3CC(C2)CC1C3 (centres unmarked) [Example 1]")
"51 to 95%"
>>> observed("O/N=C1\\CC2CC3CC1CC(O)(C2)C3 (centres unmarked) [Example 32]")
"11 to 50%"

Read the entry O=C1CC2CC3CC1CC(O)(C2)C3 (centres unmarked) [Example 31] and write its reported inhibition at 25 µM.
11 to 50%

Read the entry O=C1CC2CC3CC1CC(Cl)(C2)C3 (centres unmarked) [Example 37] and write its reported inhibition at 25 µM.
11 to 50%
